Test system: NCI/ADR-RES
Test: NCI tumour cell line growth inhibition, 48 h
Calls of active or inactive are those of the source. No stated cut-off is given here; in the data, active = GI50 up to about 1.1 µM and inactive = higher.
endpoint-name: GI50

// COc1cc(-c2oc3c(OC)c(O)c(OC)c(O)c3c(=O)c2OC)ccc1O : GI50 value = 50.8 µM (inactive)

// Cc1ccc(N)cc1.O=S(=O)(O)/C(=C\c1ccccc1)c1ccccc1 : GI50 value = > 100 µM (inactive)

// CSc1nc(C)c2c(n1)N(c1ccc(Cl)cc1)CC2 : GI50 value = > 100 µM (inactive)

---

System: HCC 2998
Assay: NCI tumour cell line growth inhibition, 48 h
Activity calls are given as the source filed them. No stated cut-off is given here; in the data, active = GI50 up to about 1.1 µM and inactive = higher.
Respond only with the outcome that fits, drawn from yes (1) (active), no (0) (inactive)

Query block: Please state the recorded outcome for this molecule: NC1CC(=O)c2sccc21 (centres undefined)
Result block: no (0)

Query block: Please state the recorded outcome for this molecule: O=C(C(O)c1cn(Cc2ccccc2)c2ccccc12)N1CCCCC1 (centres undefined)
Result block: no (0)

Query block: Please state the recorded outcome for this molecule: CC1(O)CC23CC(O)C4(O)C(CC(O)C4(C)C)C(C)(O)C2CCC1C3O (centres undefined)
Result block: no (0)

Query block: Please state the recorded outcome for this molecule: Cc1cc(-c2nc3cc(F)ccc3s2)ccc1NC(=O)C(C)N (centres undefined)
Result block: yes (1)
